# Tested on: crabgrass, large
# protocol description: Test C pre-/postemergence herbicide test
# Assay type: in vivo, Digitaria sanguinalis
# protocol conditions: Preemergence, 125 g ai/ha; scale 0 to 100 (0 no effect, 100 complete control)
measured property: Plant response rating, Crabgrass, Large

{"columns": ["compound", "observed measurement"],
 "data": [
  ["O=C1NCC(c2ccc(C(F)(F)F)cc2)C1C(=O)Nc1ccc(F)c(F)c1F (stereo not drawn) [Compound 232]", 90],
  ["O=C1NCC(c2ccc(F)c(C(F)(F)F)c2)C1C(=O)Nc1ccccc1F (racemic) [Compound 76]", 100],
  ["O=C1NCC(c2cccc(C(F)F)c2)C1C(=O)Nc1cccc(F)c1F (racemic) [Compound 211]", 95],
  ["CN1CC(c2ccc(C(F)(F)F)cc2)C(C(=O)Nc2ccccc2F)C1=O (stereo not drawn) [Compound 304]", 98],
  ["O=C1NCC(c2ccc(C(F)(F)F)c(F)c2)C1C(=O)Nc1cccc(F)c1F (racemic) [Compound 247]", 98],
  ["O=C1NCC(c2ccc(C(F)(F)F)nc2)C1C(=O)Nc1ccccc1F (racemic) [Compound 262]", 100]
]}

----------
# Test system: morningglory
# protocol description: Test C pre-/postemergence herbicide test
# Format: in vivo, Ipomoea coccinea
# protocol conditions: Postemergence; 250 g ai/ha; scale 0 to 100 (0 no effect, 100 complete control)
Entries and their measured Plant response rating, Morningglory follow.
measured property: Plant response rating, Morningglory

{"columns": ["compound", "measured property", "observed measurement"],
 "data": [
  ["O=C1NCC(c2cccc(OC(F)F)c2)C1C(=O)Nc1ccccc1F (stereo not shown)", "Plant response rating, Morningglory", 35],
  ["O=C1NCC(c2cc(F)cc(F)c2)C1C(=O)Nc1ccc(F)cc1F (racemic)", "Plant response rating, Morningglory", 0],
  ["O=C1NCC(c2cccc(C(F)(F)F)c2)C1C(=O)Nc1ccccc1Cl (stereo not shown)", "Plant response rating, Morningglory", 20],
  ["O=C1NCC(c2ccc(F)cc2)C1C(=O)Nc1cccc(F)c1F (racemic)", "Plant response rating, Morningglory", 5],
  ["O=C1NCC(c2ccccc2)C1C(=O)Nc1ccccc1F (racemic)", "Plant response rating, Morningglory", 0],
  ["O=C1NCC(c2cc(F)c(F)c(F)c2)C1C(=O)Nc1ccccc1F (racemic)", "Plant response rating, Morningglory", 10],
  ["O=C1NCC(c2cc(F)cc(F)c2)C1C(=O)Nc1cccc(F)c1F (racemic)", "Plant response rating, Morningglory", 25]
]}

----------
# Tested on: ryegrass, Italian
# protocol description: Test C pre-/postemergence herbicide test
# Type: in vivo, Lolium multiflorum
# protocol conditions: Preemergence, 31 g ai/ha; scale 0 to 100, 0 is no effect and 100 is complete control

{"columns": ["compound", "tested target", "Ryegrass, Italian plant response rating"],
 "data": [
  ["O=C1NCC(c2cc(F)cc(F)c2)C1C(=O)Nc1ccc(F)cc1F (racemic) [Compound 278]", "ryegrass, Italian", 0],
  ["O=C1NCC(c2cccc(C(F)F)c2)C1C(=O)Nc1cccc(F)c1F (racemic) [Compound 211]", "ryegrass, Italian", 0],
  ["O=C1NCC(c2cccc(C(F)(F)F)c2)C1C(=O)Nc1cccc(F)c1F (stereo not shown) [Compound 241]", "ryegrass, Italian", 20],
  ["O=C1NCC(c2cc(F)cc(F)c2)C1C(=O)Nc1cccc(F)c1F (racemic) [Compound 279]", "ryegrass, Italian", 0]
]}

meta.source: patent US10294202B2
